FYI, the data here is from paper PMC9599461.

Molecular target: DAT (Homo sapiens, UniProt Q01959)
Sequence (Q01959 whole entry): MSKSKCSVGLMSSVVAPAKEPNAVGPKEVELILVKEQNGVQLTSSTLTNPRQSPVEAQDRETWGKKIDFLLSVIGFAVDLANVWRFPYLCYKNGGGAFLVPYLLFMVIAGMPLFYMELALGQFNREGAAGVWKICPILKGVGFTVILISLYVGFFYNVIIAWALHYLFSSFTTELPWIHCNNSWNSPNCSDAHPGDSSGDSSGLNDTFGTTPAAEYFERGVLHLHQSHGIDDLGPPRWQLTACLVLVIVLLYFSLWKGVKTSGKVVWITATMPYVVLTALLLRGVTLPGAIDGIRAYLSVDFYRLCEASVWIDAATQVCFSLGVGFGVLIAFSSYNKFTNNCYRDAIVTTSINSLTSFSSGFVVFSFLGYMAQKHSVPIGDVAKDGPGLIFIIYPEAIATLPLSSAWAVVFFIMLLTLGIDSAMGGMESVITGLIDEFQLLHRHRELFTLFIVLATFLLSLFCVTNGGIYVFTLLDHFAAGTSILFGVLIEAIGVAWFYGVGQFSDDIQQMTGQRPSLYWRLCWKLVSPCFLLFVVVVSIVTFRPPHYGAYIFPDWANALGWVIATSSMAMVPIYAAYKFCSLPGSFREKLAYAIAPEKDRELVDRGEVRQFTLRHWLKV
Assay: Stereoselective uptake into DAT-overexpressing HEK293 cells;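 note: intracellular accumulation measured by chiral HPLC-MS/MS in stably transfected HEK293 cells, normalized to total protein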
Conditions: human, HEK293 cells stably overexpressing human DAT
# selectivity ratio at 2 min listing for each entry below
Could you keep your reply to the number by itself?

In [3]: df
Out[3]:
                                 compound  number
0  NC[C@H](O)c1ccc(O)cc1 [(R)-Octopamine]       1

Form field selectivity ratio at 2 min, entry NC[C@@H](O)c1ccc(O)cc1 [(S)-Octopamine] : 1

###

Target: OCT2 (Homo sapiens, UniProt O15244)
Assay: Stereoselective uptake into OCT2 (wild-type)-overexpressing HEK293 cells
Conditions: human, HEK293 cells stably overexpressing human wild-type OCT2, Stereoselectivity Vmax, OCT2; ratio between enantiomers, given as for (R) or for 1
MEASURED_QUANTITY: selectivity ratio at 2 min
Could you keep your reply to the number by itself?

>>> df
                                  molecule                        tested_system           measured_quantity  number
0  NC[C@@H](O)c1ccc(O)cc1 [(S)-Octopamine]  OCT2 (Homo sapiens, UniProt O15244)  selectivity ratio at 2 min    2.14

Note: attention shifts to another entry.
Form field selectivity ratio at 2 min, entry NC[C@H](O)c1ccc(O)cc1 [(R)-Octopamine] : 2.14

###

Molecular target: NET (Homo sapiens)
Sequence (P23975 whole entry): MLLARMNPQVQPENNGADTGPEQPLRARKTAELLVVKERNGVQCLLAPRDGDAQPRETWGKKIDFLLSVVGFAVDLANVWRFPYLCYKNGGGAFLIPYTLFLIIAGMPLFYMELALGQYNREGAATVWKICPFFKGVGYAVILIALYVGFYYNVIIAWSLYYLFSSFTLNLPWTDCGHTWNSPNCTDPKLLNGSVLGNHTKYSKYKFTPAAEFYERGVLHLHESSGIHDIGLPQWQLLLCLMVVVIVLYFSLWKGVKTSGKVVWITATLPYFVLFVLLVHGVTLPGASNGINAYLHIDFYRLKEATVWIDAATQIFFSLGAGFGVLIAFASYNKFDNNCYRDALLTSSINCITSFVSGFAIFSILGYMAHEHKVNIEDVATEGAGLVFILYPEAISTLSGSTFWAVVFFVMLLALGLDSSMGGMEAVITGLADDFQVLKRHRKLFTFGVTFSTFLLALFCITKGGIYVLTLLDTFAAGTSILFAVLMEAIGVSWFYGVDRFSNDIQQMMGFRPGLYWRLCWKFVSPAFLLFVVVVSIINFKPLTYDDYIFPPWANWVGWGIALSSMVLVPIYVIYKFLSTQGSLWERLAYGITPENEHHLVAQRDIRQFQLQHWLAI
Assay: Stereoselective uptake into NET-overexpressing HEK293 cells;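 note: intracellular enantiomers quantified in cell lysates by chiral HPLC-MS/MS after a 2 min substrate incubation, with uptake normalized to total cellular protein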
Conditions: NET; ratio between enantiomers, given as for (S) or for 2 (second-eluting)
MEASURED_QUANTITY: Stereoselectivity Km (fold)
Field: numeric (fold). Do not append units.

Examples with answers:
>>> print(df.to_string())
                                   molecule       tested_system     measured_quantity  number
0  CNC[C@@H](O)c1ccc(O)cc1 [(S)-Synephrine]  NET (Homo sapiens)  Stereoselectivity Km    2.61
1  C[C@@H]1NCCc2cc(O)c(O)cc21 [Salsolinol-1, Salsolinol]  NET (Homo sapiens)  Stereoselectivity Km    1.13
2   CNC[C@H](O)c1ccc(O)cc1 [(R)-Synephrine]  NET (Homo sapiens)  Stereoselectivity Km    2.61

Note: attention shifts to another entry.
Form field Stereoselectivity Km, entry C[C@@H]1NCCc2cc(O)c(O)cc21 [Salsolinol-2, Salsolinol] : 1.13

###

Molecular target: OCT2 (Homo sapiens, UniProt O15244, S270A)
Sequence (O15244 1-555 S270A): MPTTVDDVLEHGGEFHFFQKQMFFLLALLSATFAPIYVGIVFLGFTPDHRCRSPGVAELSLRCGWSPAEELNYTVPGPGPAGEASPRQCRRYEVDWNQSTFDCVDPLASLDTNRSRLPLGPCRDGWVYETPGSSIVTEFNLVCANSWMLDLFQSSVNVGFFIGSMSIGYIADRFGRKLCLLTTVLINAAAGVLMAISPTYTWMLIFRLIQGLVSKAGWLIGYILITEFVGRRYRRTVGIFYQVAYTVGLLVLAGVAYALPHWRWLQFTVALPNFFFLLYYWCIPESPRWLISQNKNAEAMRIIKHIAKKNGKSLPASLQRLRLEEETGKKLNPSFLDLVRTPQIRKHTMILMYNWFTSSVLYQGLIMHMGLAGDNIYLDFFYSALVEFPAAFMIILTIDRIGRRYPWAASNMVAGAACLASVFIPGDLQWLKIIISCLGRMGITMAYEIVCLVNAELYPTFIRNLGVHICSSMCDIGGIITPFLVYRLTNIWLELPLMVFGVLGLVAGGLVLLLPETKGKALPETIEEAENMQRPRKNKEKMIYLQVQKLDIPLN
Assay: Stereoselective uptake into OCT2 (wild-type)-overexpressing HEK293 cells
Settings: OCT2; ratio between enantiomers, given as for (R) or for 1 (first-eluting)
MEASURED_QUANTITY: Stereoselectivity Km (fold)
Field: numeric (fold). Do not append units.

Examples with answers:
>>> df
                                   molecule                             tested_system     measured_quantity  number
0  COc1cc(C(O)CN)ccc1O (single isomer, unassigned)  OCT2 (Homo sapiens, UniProt O15244, S270A)  Stereoselectivity Km    1.32
1  NCC(O)c1cccc(O)c1 (single isomer, unassigned)  OCT2 (Homo sapiens, UniProt O15244, S270A)  Stereoselectivity Km    1.57
2  C[C@@H]1NCCc2cc(O)c(O)cc21 [Salsolinol-1, Salsolinol]  OCT2 (Homo sapiens, UniProt O15244, S270A)  Stereoselectivity Km    1.04

Note: attention shifts to another entry.
Tested on OCT2 (Homo sapiens, UniProt O15244, S270A), the item C[C@@H]1NCCc2cc(O)c(O)cc21 [Salsolinol-2, Salsolinol] showed Stereoselectivity Km equal to 1.04

###

Please consider the recorded Stereoselectivity ClInt for SERT (Homo sapiens, UniProt P31645) in what follows.

Tested on SERT (Homo sapiens, UniProt P31645), the item C[C@@H]1NCCc2cc(O)c(O)cc21 [Salsolinol-1, Salsolinol] showed Stereoselectivity ClInt equal to 2.48 fold

Tested on SERT (Homo sapiens, UniProt P31645), the item C[C@@H]1NCCc2cc(O)c(O)cc21 [Salsolinol-2, Salsolinol] showed Stereoselectivity ClInt equal to 2.48 fold

Tested on SERT (Homo sapiens, UniProt P31645), the item NC[C@@H](O)c1ccc(O)c(O)c1 [(S)-Norepinephrine] showed Stereoselectivity ClInt equal to 1.78-fold for (R)

Tested on SERT (Homo sapiens, UniProt P31645), the item NC[C@H](O)c1ccc(O)c(O)c1 [(R)-Norepinephrine] showed Stereoselectivity ClInt equal to 1.78-fold for (R)

###

Target: OCT3 (Homo sapiens, UniProt O75751)
Sequence (O75751 1-556): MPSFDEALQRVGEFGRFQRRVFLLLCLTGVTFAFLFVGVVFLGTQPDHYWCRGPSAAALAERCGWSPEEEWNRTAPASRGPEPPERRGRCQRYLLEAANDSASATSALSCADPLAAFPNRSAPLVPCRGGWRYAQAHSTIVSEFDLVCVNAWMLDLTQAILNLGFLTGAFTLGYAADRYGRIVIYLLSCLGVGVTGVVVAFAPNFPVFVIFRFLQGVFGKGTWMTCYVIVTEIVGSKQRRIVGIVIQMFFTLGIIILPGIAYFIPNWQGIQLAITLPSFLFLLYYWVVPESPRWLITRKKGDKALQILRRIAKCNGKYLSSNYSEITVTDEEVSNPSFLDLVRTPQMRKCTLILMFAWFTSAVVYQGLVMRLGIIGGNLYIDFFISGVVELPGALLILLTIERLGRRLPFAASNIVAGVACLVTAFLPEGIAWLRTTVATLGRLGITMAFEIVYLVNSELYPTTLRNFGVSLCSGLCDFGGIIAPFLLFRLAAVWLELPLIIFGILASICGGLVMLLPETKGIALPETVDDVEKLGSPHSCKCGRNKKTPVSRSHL
Test: Stereoselective uptake into OCT3-overexpressing HEK293 cells;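 note: intracellular accumulation in HEK293 cells measured by chiral HPLC-MS/MS after a 2 min substrate exposure at 37 °C, uptake normalized to total protein (bicinchoninic acid assay)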
Settings: read-out: Km ± SEM; HEK293 cells overexpressing human OCT3; racemic substrate, two minutes; net uptake minus empty vector control
# Km listing for each entry below
Field: numeric (µM). Do not append units.

Examples with answers:
                                   compound  measured_quantity  units_symbol  number
0  NC[C@H](O)c1ccccc1 [(R)-Bisnorephedrine]                 Km            µM     165
1  CNC[C@@H](O)c1ccc(O)c(O)c1 [(S)-Epinephrine]                 Km            µM     455
2  C[C@@H]1NCCc2cc(O)c(O)cc21 [Salsolinol-1, Salsolinol]                 Km            µM     186

Form field Km, entry NC[C@H](O)c1ccc(O)c(O)c1 [(R)-Norepinephrine] : 557

Form field Km, entry NC[C@@H](O)c1ccc(O)c(O)c1 [(S)-Norepinephrine] : 519

Form field Km, entry C[C@@H]1NCCc2cc(O)c(O)cc21 [Salsolinol-2, Salsolinol] : 222

Form field Km, entry NC[C@@H](O)c1ccccc1 [(S)-Bisnorephedrine] : 153

###

Target: OCT2 (Homo sapiens, UniProt O15244)
Experiment: Stereoselective uptake into OCT2 (wild-type)-overexpressing HEK293 cells
Details: human, Stereoselectivity Vmax, OCT2; ratio between enantiomers, given as for (S) or for 2
MEASURED_QUANTITY: selectivity ratio at 2 min
Could you keep your reply to the number by itself?

Form field selectivity ratio at 2 min, entry COc1cc(C(O)CN)ccc1O (single isomer, unassigned) [Normetanephrine-2, Normetanephrine] : 2.06

###

Molecular target: OCT2 (Homo sapiens, UniProt O15244, S270A)
Test: Stereoselective uptake into OCT2 (wild-type)-overexpressing HEK293 cells
Details: OCT2; ratio between enantiomers, given as for (R) or for 1
MEASURED_QUANTITY: Stereoselectivity ClInt (fold)
Field: numeric (fold). Do not append units.

Examples with answers:
>>> df
                                   compound        measured_quantity  number
0  CNCC(O)c1ccc(O)c(OC)c1 (single isomer, unassigned)  Stereoselectivity ClInt    2.66
1  NCC(O)c1cccc(O)c1 (single isomer, unassigned)  Stereoselectivity ClInt    1.40

Note: attention shifts to another entry.
Form field Stereoselectivity ClInt, entry COc1cc(C(O)CN)ccc1O (single isomer, unassigned) : 1.56
